Known apparent KD of MS2 coat protein of a selection of sequences
- Tested on: MS2 coat protein
- ASSAY TEXT: apparent KD of MS2 coat protein; designed switch direction (-1 OFF switch, 1 ON switch): -1; higher = weaker reporter binding
- RUN PARAMETERS: Eterna round: R95; input ligand: microRNA oligo, concentration not stated
OUTCOME MEASURE: apparent KD of MS2 coat protein (nM)

1. GAAAAGGUAGGAUAUACGAAAAAAAAGGAUAGAAAAAAAACACAUGAGGAUCACCCAUGUAGAAGGACCAAAAG [salish99_ex2_r3_066] (puzzle: Exclusion 2); 25.5
2. UUUAAUUUUUUUUUUUUACAAGCUUUUUGCUCGUCUUAUACAUGAGGAUCACCCAUGUGGAUGGGAAAUGAAUUAUC [JMF 97] (puzzle: Sensor v3, turn-off variant 2); 115
3. ACUAGGCGAGGAUAUACAUGCUUAACGCAGGAAAAGCUGCGACAUGAGGAUCACCCAUGUAGAAGGCGCAAAUA [Xege] (puzzle: Exclusion 2); 15.4
4. UUUUUCAAGCCAGAUCCUCACAUGAGGAUCACCCAUGUGCUCGUCUGUUUUCGCACUAUCACGUUUGUGAUAGUGCU [Level Boss var2-11] (puzzle: Sensor v3, turn-off variant 1); 17.7
5. CUUUUUUUUGUGAGGAUAUACUGUUAUUAAAGUUAGUAGAAGGUACAUGAGGAUCACCCAUGUUAAUUACUCUA [JR_BME4_Sub049] (puzzle: Brourd's mod of Exclusion 4); 14.2

----------
- System: MS2 coat protein
- ASSAY TEXT: apparent KD of MS2 coat protein; designed switch direction (-1 OFF switch, 1 ON switch): -1; higher = weaker reporter binding
- RUN PARAMETERS: input ligand: none
OUTCOME MEASURE: apparent KD of MS2 coat protein (nM)

1) AAUAAUGAUAAGGAUAUUACUAGCGAUAGCUAGUGAGAAGGUAUCACAUGAGGAUCACCCAUGUGUUCCAAUAA [Ex6/6-B4] (Eterna round: R97, puzzle: Exclusion 6); 17.3
2) AACAAGGGUUAAUGUACGGACAUGAGGAUCACCCAUGUCCACGGAUGUGUGGAGAGGUCCUCUUUGGCUCGUCUUAU [Cac Sensor turn off var1 sub10] (Eterna round: R97, puzzle: Sensor, turn-off variant 1); 87.8
3) GAAUAGAGAGGAUAUGCAAUGAAGGUAGUACGAUAUGUCUGACAUGAGGAUCACCCAUGUAGAAGGCUCAGAUC [EX2 #9] (Eterna round: R97, puzzle: Exclusion 2); 29.8

----------
- Test system: K4 kissing-loop RNA reporter;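 further: bound reporter read as fluorescence of individual clusters on recovered sequencing chips by microscopy, with normalized cluster intensities fitted with a binding model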
- ASSAY TEXT: apparent KD of K4 kissing-loop reporter; higher = weaker reporter binding
- RUN PARAMETERS: Eterna round: R107; input ligand: none
Known apparent KD of K4 kissing-loop reporter of a selection of sequences
OUTCOME MEASURE: apparent KD of K4 kissing-loop reporter (nM)

1. ACCCGGGCCCGAAAGGGCCCGGGAAGAGAUACCAGCAGCGAAAGCUGCCCUUGGCAGCUCACUUAGUGAUGUUGAGAAUAGGGCG [#21 K4 Theophylline A Same State]; 554
2. AGGAGCUGUCGACAAAAGUCGACAUAAACCAAGGAUAUGACGAAAGUCAGAAGGUGGUCAUAAGACCAGUGAUGUUGGUAGCUCC [FmnA 10 #SwitchBubble #K4Late]; 466
3. GGUUGAAGUACCCGGAGUGAUGUUCCGGAUACCAGCAAACCAACUUGCCCUUGGCAGCCGUAUAGCGUCCGGUGGACCGAGCAUA [Soriesreve]; 77.4
4. AAGUCUCGUUAAUUCGAGGUUACGAUCGAUACCAGUAGCGAGAGGUACCCUUGGCAGCGAAGUGAGUGAUGUUCAUGAAAGAAGA [KL-XTheoA12]; 92.7
5. ACGUUCGGAACGGCCGCCACUAUGGGCAGUGAUGUUGCCCAUAACCGGUUUUGCGUCAGAUCCCUUAGGACCGGGUUCUGGUAUA [Soonlesoso]; 73.4
6. UGAUACCAGGCGGCCGCCACUCCCGCAGGUCAAAGACCUGCGAAGCUGGUUCUUCAGUGAUGUUGGAGGACCGGGCCUGGUAUCU [FiskerMod 25 - Jieux - Exclusion - Tryptophan B]; 236
7. UUUAUAAUGUCGGCCGCCACUGGAUUAAUAUUUGUAUAAUCUAGUUCUGAGUGAUGUUUAGAGUCCAGGACCGGGACAUUUGUUA [#10 K4 Tryptophan B Exclusion]; 651
8. GGUGGACUAGUCGAGUGAUGUUCGAGGCAUCGAGGACCGGUACGGCCGCCACUCGCAAAUCUACCGUGCGUUAACCACCAAAGUG [theeternabot_sameState_KL_Trp_A_37]; 304
9. GGUAGCAUGGCGGCCGCCACUUAUGUUCACAUAGUGAUGUUAUGUUCACAUUUAUGGCCCUGCUUAAGGACCGGGCCAUGCUACC; 105
10. UAAUCCUAGUGAUAAUUAUCAAGUGGUGGGCGAGGACCGGUACGGCCGCCACUCGAAUAUGCAGUGAUGUUGUAAUCCGGAUAAU [Exclusion - Tryptophan A (Freestyle 7)]; 534
11. UGUACCGAGUCAGGAUAUGGCGUCGAAAGACGAAACCAGUGAUGUUGGAAUAUCGACGAAAGUCGUCCAGAAGGGACUUGGUACU [FmnBS 17 #SwitchBubble #StaticStem #DoubleMagnetSystem]; 256
12. AACGGCCAGUCGGCCGCCACUCGAUGCAGUGAUGUUGCUAACUUUCUAAAAGAGUGAUGUUCAUGGAGGACCGGGACUAGUGUAA [#30 K4 Tryptophan B Exclusion]; 291
13. AGAGGAAAUAGAAGGAGCGGCGCCAGUGAUGUUGGAUGCCGCGGGUGAAUCAGGUCAUAGUGCCAGGUAGGUCGCUAUUUCAGCG [Larebeve]; 141
14. AAAUUUUAAAGUGAUACCAGACAUCUCUAUUACAUUAAUAUAGCUAAGUGAUGUUUAGCAGUCCCUUGGCAGCACAAUUUAAUUA [JR_SSTheophyB_Sub012]; 334
15. UAGUCUCGAGUCUGAGAUUACGGGUCAGAUACCAGACUAGAGAUAGUCCCUUGGCAGCUGAAGUUCAGUGAUGUUGAACGGAUUA [Theo B SS t10a]; 441
16. GCCGUACGCAUGGAUACCAGAGAUGUUAGUCUCGAUGCCAGUGAUGUUGGCUAUAGCAUACUCCCUUGGCAGCCAUGCGUACGGC; 128
17. AUAAACUUGCAGUGAUGUUGCAAGUGAGACUAGGAUAUCAGGAAGCUGAGAAGGAGUCAUCUCCUUCAAACAUCACUAUGAAGGA [whbob_SS_FMNA__2th178]; 336
18. UUUUAGGUAUCUGAUACCAGAGAAAAUAUAUGUAGUGAUGUUAUAUACAAAAUAAUUAAGCUCCCUUGGCAGCAGUAUUAAUUUU [AstrosExc-TheB#3]; 854
19. UGGACCUGACUCGAUAAGAGUCAAUGAGAUACCAGUGACGAAAGUCACCCUUGGCAGCUCACUGCCAGUGAUGUUGGUAGGUCCU [#SwitchBubble 3 #StaticStem]; 1300
20. AGUGCACUGGCAGGAUAUGUACAGUGAUGUUGUGUAUGUCAGCAAGUCAAAGACUUGCUCUUCUGUGCAGAAGGGCCUGUGUACA [#05 K4 FMN B Exclusion]; 668
21. GCCGAAUCGUUGGGCUCAGUGAUGUUGAUCCGAGGACCGGUACGGCCGCCACUCGAAUGGCAGUGACCACACUGGUAACGUUAAA [theeternabot_exclusion_KL_Trp_A_43]; 699
22. AAGUGAUGUUGUAGUGAUGUUGUGAUGUUGCAGGAUAUAUAGUGAUGUAGAAGGGUAUGUACAGUUUUUUUUUUUGAGUGUUGAU [sscsmullin]; 62.2
23. UGUACCGAGUCAGGAUAUGACGACUAGUCAAAGACUGGUCGAAAAUCCAGUGAUGUUGGAAAUAAAUCAGAAGGGACUUGGUACU [FmnBS 16 #SwitchBubble #StaticStem]; 272

----------
- Test system: MS2 coat protein
- ASSAY TEXT: apparent KD of MS2 coat protein; designed switch direction (-1 OFF switch, 1 ON switch): -1; higher = weaker reporter binding
- RUN PARAMETERS: Eterna round: R95; input ligand: FMN 200 uM
OUTCOME MEASURE: apparent KD of MS2 coat protein

1. UUCCAGACAGGAUAUCUAGUGAGCAACAUGAGGAUCACCCAUGUGACCAUCACCGCCCGCAGAGAAGGGUCAACAG [Inbilaus] (puzzle: Exclusion 5); 55.4 nM
2. UUAGUGUGAGGAUAUGGUAAAGAUAAGAUGAUGAAAGAACUCCAGAAGGCACAUGAGGAUCACCCAUGUAGAUU [Mat - Exclusion 4 - Mod of JL - D25] (puzzle: Exclusion 4); 53.5 nM
3. GUAAUUAUAUAGGAUAUCGAACUUAUAAUUUAACGAGAAGGAUGAACAUGAGGAUCACCCAUGUGGUAUCAUGG [JL-ex6-3.07] (puzzle: Exclusion 6); 131 nM
